This collection of values is drawn from ChEMBL document CHEMBL4619706.

Please provide measured pIC50 for the entries that follow.
System: HepG2
Experiment: Anticancer activity against human HepG2 cells assessed as inhibition of cell growth incubated for 24 hrs by MTT assay
Assay type: functional, cell-based
Settings: HepG2, 24 h
pIC50 field: float, defined as -log10 of concentration (mol/L).

QUERY: Give reported pIC50 value for C(=N\c1nnc2c3ccccc3nc(Nc3ccccc3)n12)/c1ccccc1
RESULT: 4.72

QUERY: Tell us which pIC50 value is on record for O=C(CCl)Nc1nnc2c3ccccc3nc(Sc3ccc(Br)cc3)n12
RESULT: 4.52

QUERY: Report pIC50, nothing else, for this compound: O=C1CSCC(=O)N1c1nnc2c3ccccc3nc(Sc3ccc(Br)cc3)n12
RESULT: 5.07

QUERY: Give reported pIC50 value for O=C(CN1CCOCC1)Nc1nnc2c3ccccc3nc(Sc3ccc(Br)cc3)n12
RESULT: 4.30

QUERY: Tell me pIC50 reported for CCN1CCN(CCCNc2ccc(Oc3nc4ccccc4c4nncn34)cc2)CC1
RESULT: 4.94
